Measured logP, listed per entry for reference.
assay: physchem; assay type: physicochemical
READOUT LABEL: logP

>>> print(df.to_string())
                                   compound  endpoint_result
0  C=CCNC(=O)c1cc(NC(=O)c2ccc(C(F)(F)F)nc2Cl)c(C)cc1Cl [Ir-7]          2.68^a)
1  Cn1nc(C(F)(F)C(F)(F)F)c(C(F)(F)F)c1C(=O)Nc1ccc(Cl)c(C(=O)OCC(=O)NC(N)=O)c1 [Ik-110]          3.10^a)
2  Cn1nc(C(F)(Cl)C(F)(F)F)c(Br)c1C(=O)Nc1ccc(Cl)c(C(=O)NC2CC2)c1 (centres unmarked) [Ik-16]          3.35^a)
3  CC(C)NC(=O)c1cc(NC(=O)c2nccc(C(F)(F)F)c2Cl)ccc1Cl [Ie-2]          2.72^a)
4  Cn1nc(C(F)(F)C(F)(F)F)c(C(F)(F)F)c1C(=O)Nc1ccc(Cl)c(C(=O)NCCF)c1 [Ik-88]          3.21^a)
5  CC(NC(=O)c1cc(NC(=O)c2c(Cl)c(C(F)(F)F)nn2C)ccc1Cl)C(F)(F)F (centres unmarked) [Ik-152]          3.44^a)
6  CC(C)NC(=O)c1cc(NC(=O)c2c(C(F)(F)F)c(C(F)(F)C(F)(F)F)nn2C)ccc1Cl [Ik-90]          3.60^a)
7  Cn1nc(C(F)F)c(C(F)(F)F)c1C(=O)Nc1ccc(Cl)c(C(=O)NCC=CCl)c1 [Ik-232]          2.92^a)

###

assay: physchem; format: physicochemical
READOUT LABEL: logP

In [3]: df
Out[3]:
                             compound_smiles  endpoint_result
 0  Cn1nc(C(F)(F)C(F)(F)F)c(C(F)(F)F)c1C(=O)Nc1ccc(Cl)c(C(=O)NCC=C(Cl)Cl)c1          4.09^a)
 1  O=C(NCC(F)(F)F)c1cc(NC(=O)c2ccc(C(F)(F)F)nc2Cl)ccc1Cl          2.82^a)
 2  CSCCNC(=O)c1cc(NC(=O)c2c(C(F)(F)F)c(C(F)(F)C(F)(F)F)nn2C)ccc1Cl          3.57^a)
 3  Cn1nc(C(F)(F)C(F)(F)F)c(C(F)(F)F)c1C(=O)Nc1ccc(Cl)c(C(=O)OCC(=O)NCO)c1          2.93^a)
 4  O=C(NCC=CCl)c1cc(NC(=O)c2cnc(C(F)(F)F)nc2C(F)(F)F)ccc1Cl          3.19^a)
 5  Cn1nc(C(F)(F)C(F)(F)F)c(C(F)(F)F)c1C(=O)Nc1ccc([N+](=O)[O-])c(C(=O)NC2CC2)c1          3.27^a)
 6  Cn1nc(C(F)(F)C(F)(F)F)c(C(F)(F)F)c1C(=O)Nc1ccc2c(c1)C(=O)OC2          3.20^a)
 7  Cn1nc(C(F)(F)C(F)(F)F)c(C(F)(F)F)c1C(=O)Nc1cc(Cl)c(Br)c(C(=O)NCc2ccccc2)c1          4.42^a)
 8  Cn1nc(C(F)(F)C(F)(F)F)c(C(F)(F)F)c1C(=O)Nc1cc(C(=O)NC2CC2)c(Cl)cn1          3.24^a)
 9  Cn1nc(C(F)(F)C(F)(F)F)c(C(F)(F)F)c1C(=O)Nc1cc(C(=O)NCc2ccccc2)c(Cl)cc1Cl          4.23^a)
10  O=C(NCc1ccccc1)c1cc(NC(=O)c2cnc(C(F)(F)C(F)(F)F)nc2C(F)F)ccc1Cl          3.51^a)
11  Cc1nc(C(F)(F)C(F)(F)F)ncc1C(=O)Nc1ccc(Cl)c(C(=O)NCC=CCl)c1           3.2^a)
12  Cn1nc(C(F)(F)C(F)(F)F)c(C(F)(F)F)c1C(=O)Nc1cc(F)c(F)c(C(=O)NC2CC2)c1          3.60^a)
13  Cn1nc(C(F)(F)C(F)(F)F)c(Br)c1C(=O)Nc1ccc(Cl)c(C(=O)NCC=CCl)c1          3.64^a)
14  CC(C)n1nc(C(F)(F)C(F)(F)F)c(C(F)(F)F)c1C(=O)Nc1ccc(Cl)c(C(=O)NC2CC2)c1          4.02^a)
15  Cn1nc(C(F)(F)C(F)(F)F)c(C(F)(F)F)c1C(=O)Nc1cc(F)c(Cl)c(C(=O)NCc2ccccc2)c1          4.14^a)
16  CSc1c(F)cc(NC(=O)c2c(C(F)(F)F)c(C(F)(F)C(F)(F)F)nn2C)cc1C(=O)NCC(F)(F)F          3.90^a)
17  Cn1nc(C(F)(F)C(F)(F)F)c(C(F)(F)F)c1C(=O)Nc1ccc(Br)c(C(=O)NC2CC2)c1          3.39^a)
18  CCn1nc(C(F)(F)C(F)(F)F)c(C(F)(F)F)c1C(=O)Nc1ccc(Cl)c(C(=O)NC2CC2)c1          3.63^a)
19  Cn1nc(C(F)(F)C(F)(F)F)c(C(F)(F)F)c1C(=O)Nc1cc(Br)c(Br)c(C(=O)NCc2ccccc2)c1          4.42^a)
20  CSc1c(Cl)cc(NC(=O)c2c(C(F)(F)F)c(C(F)(F)C(F)(F)F)nn2C)cc1C(=O)NCC(F)(F)F          4.15^a)
21  Cn1nc(C(F)(F)C(F)(F)F)c(C(F)(F)F)c1C(=O)Nc1cc(Br)c(I)c(C(=O)NCC(F)(F)F)c1          4.15^a)
22  O=C(NCc1ccccc1)c1cc(NC(=O)c2cnc(C(F)(F)F)nc2C(F)(F)F)ccc1Cl          3.39^a)
23  Cn1nc(-c2ccc(OC(F)(F)F)cc2)c(Br)c1C(=O)Nc1ccc(Cl)c(C(=O)NCC(F)(F)F)c1          4.15^a)
24  O=C(NC1CC1)c1cc(NC(=O)c2cnc(C(F)(F)F)nc2C(F)(F)F)ccc1Cl          2.78^a)
25  Cn1nc(C(F)(F)C(F)(F)F)c(C(F)(F)F)c1C(=O)Nc1cc(C(=O)NC2CC2)c(Cl)cc1Cl          3.61^a)
26  O=C(NCc1ccccc1)c1cc(NC(=O)c2ncc(C(F)(F)F)cc2Cl)ccc1Cl          3.17^a)
27  CNC(=O)c1cc(NC(=O)c2c(C(F)(F)F)c(C(F)(F)C(F)(F)F)nn2C)ccc1Cl          3.04^a)
28  CC(C)(C)n1nc(C(F)(F)C(F)(F)F)c(C(F)(F)F)c1C(=O)Nc1ccc(Cl)c(C(=O)NC2CC2)c1          4.17^a)
29  Cn1nc(C(F)(F)C(F)(F)F)c(C(F)(F)F)c1C(=O)Nc1cc(F)c(Cl)c(C(=O)NC2CC2)c1          3.59^a)
30  Cn1nc(C(F)(F)F)c(Br)c1C(=O)Nc1ccc(Cl)c(C(=O)NCC(F)(F)F)c1          3.17^a)

###

assay: physchem; assay type: physicochemical
Measured logP, listed per entry for reference.
READOUT LABEL: logP

In [3]: df
Out[3]:
                                    molecule  readout_label  endpoint_result
 0  Cn1nc(C(F)(F)C(F)(F)F)c(C(F)(F)F)c1C(=O)Nc1cc(Cl)c(Br)c(C(=O)NCC(F)(F)F)c1 [Ik-215]           logP          4.14^a)
 1  Cn1nc(C(F)(F)C(F)(F)F)c(C(F)(F)F)c1C(=O)Nc1ccc(Cl)c(C(=O)NCC=CCl)c1 [Ik-83]           logP          3.72^a)
 2  CSc1c(Br)cc(NC(=O)c2c(C(F)(F)F)c(C(F)(F)C(F)(F)F)nn2C)cc1C(=O)NCc1ccccc1 [Ik-199]           logP          4.43^a)
 3  Cn1nc(C(F)(F)C(F)(F)F)c(C(F)(F)F)c1C(=O)Nc1cc(F)c(I)c(C(=O)NC2CC2)c1 [Ik-225]           logP          3.63^a)
 4  Cn1nc(C(F)(F)C(F)(F)C(F)(F)C(F)(F)F)c(I)c1C(=O)Nc1ccc(Cl)c(C(=O)NC2CCC2)c1 [Ik-268]           logP          4.16^a)
 5  CN(C(=O)c1c(C(F)(F)F)c(C(F)(F)C(F)(F)F)nn1C)c1ccc(Cl)c(C(=O)NCC(F)(F)F)c1 [Ik-133]           logP          3.66^a)
 6  Cn1nc(C(F)(F)C(F)(F)F)c(C(F)(F)F)c1C(=O)Nc1cc2c(cc1F)COC2=O [Ik-105]           logP          3.27^a)
 7  Cc1nc(C(F)(F)F)ncc1C(=O)Nc1ccc(Cl)c(C(=O)NCc2ccccc2)c1 [Ib-22]           logP          2.94^a)
 8  CC(NC(=O)c1cc(NC(=O)c2c(Br)c(C(F)(F)C(F)(F)F)nn2C)ccc1Cl)C1CC1 (stereo not drawn) [Ik-12]           logP          3.84^a)
 9  Cn1nc(C(F)(F)C(F)(F)F)c(C(F)(F)F)c1C(=O)Nc1ccc(F)c(C(=O)NCc2ccccc2)c1 [Ik-157]           logP          3.95^a)
10  O=C(NC1CC1)c1cc(NC(=O)c2cnc(C(F)(F)C(F)(F)C(F)(F)F)nc2C(F)(F)F)ccc1Cl [Ib-15]           logP          3.56^a)
11  CC(C)(F)n1nc(C(F)C(F)(F)F)c(C(F)(F)F)c1C(=O)Nc1ccc(Cl)c(C(=O)NC2CC2)c1 (stereo not drawn) [Ik-100]           logP          3.39^a)
12  CSc1c(Cl)cc(NC(=O)c2c(C(F)(F)F)c(C(F)(F)C(F)(F)F)nn2C)cc1C(=O)NCc1ccccc1 [Ik-202]           logP          4.39^a)
13  Cn1nc(C(F)(F)C(F)(F)F)c(C(F)(F)F)c1C(=O)Nc1cc(Br)c(Cl)c(C(=O)NC2CC2)c1 [Ik-7]           logP          3.81^a)
14  Cn1nc(-c2ccc(OC(F)(F)F)cc2)c(Br)c1C(=O)Nc1ccc(Cl)c(C(=O)NC2CC2)c1 [Ik-251]           logP          3.76^a)
